Origin of measurements: ChEMBL document CHEMBL2074544

target.desc: Oct1 (Solute carrier family 22 member 1) (Mus musculus, UniProt O08966)
Sequence (O08966 whole entry): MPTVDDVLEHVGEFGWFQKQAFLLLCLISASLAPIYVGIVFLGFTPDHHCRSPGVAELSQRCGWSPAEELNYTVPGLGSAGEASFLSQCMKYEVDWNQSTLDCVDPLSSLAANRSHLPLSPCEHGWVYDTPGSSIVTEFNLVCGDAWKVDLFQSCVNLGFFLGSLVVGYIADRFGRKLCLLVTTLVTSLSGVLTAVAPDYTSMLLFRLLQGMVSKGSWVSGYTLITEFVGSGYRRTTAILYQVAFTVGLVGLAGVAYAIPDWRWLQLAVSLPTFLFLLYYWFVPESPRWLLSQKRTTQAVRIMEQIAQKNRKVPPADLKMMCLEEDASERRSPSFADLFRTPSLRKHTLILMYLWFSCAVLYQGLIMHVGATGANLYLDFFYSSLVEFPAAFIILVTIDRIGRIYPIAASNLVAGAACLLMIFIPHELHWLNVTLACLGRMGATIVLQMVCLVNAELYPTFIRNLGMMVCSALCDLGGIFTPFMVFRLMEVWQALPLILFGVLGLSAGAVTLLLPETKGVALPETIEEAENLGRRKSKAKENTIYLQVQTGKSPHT
run.description: in vitro
experimental.setup: BALB/3T3 cells expressing Oct1, probe TEA (50 uM)
Description: TP_TRANSPORTER: inhibition of TEA uptake (TEA: 50 uM, Thiamine: 10000 uM) in Oct1-expressing BALB/3T3 cells
measure.name: activity at 10000 uM (%)
The figure you give is taken to be in %; do not add the unit.

Request the reported activity at 10000 uM associated with "Cc1ncc(C[n+]2csc(CCO)c2C)c(N)n1"
0

----------
target.desc: Oct1 (Solute carrier family 22 member 1) (Mus musculus, UniProt O08966)
run.description: TP_TRANSPORTER: inhibition of TEA uptake (TEA: 50 uM, NMN: 10000 uM) in Oct1-expressing BALB/3T3 cells
Type: functional, cell-based
Set-up: scale not given: the % may be the effect or the level left
experimental.setup: BALB/3T3 cells expressing Oct1, probe TEA (50 uM), read-out: Activity
measure.name: activity at 10000 uM (%)
The figure you give is taken to be in %; do not add the unit.

Request the reported activity at 10000 uM associated with CNC(=O)c1cccnc1 [NICOTINYL METHYLAMIDE]
0
